Test: Example 1: stability of bilberry extract anthocyanosides, 4 hours at 37° C., pH 7.0, with/without DHLA or GSH (HPLC)
Type: physicochemical
Settings: unprotected, pH 7.0, 37° C., 4 hours
readout-type: Peak Area, Blank (4 hours)
Just the number, please.

Example entries begin here.
COc1cc(-c2[o+]c3cc(O)cc(O)c3cc2O[C@@H]2O[C@H](CO)[C@H](O)[C@H](O)[C@H]2O)cc(OC)c1O [Mv-3O-Gal, Malvidin 3-o-galactoside] :: 67.3
COc1cc(-c2[o+]c3cc(O)cc(O)c3cc2O[C@@H]2O[C@H](CO)[C@@H](O)[C@H](O)[C@H]2O)cc(O)c1O [Pt-3O-Glc, Petunidin 3-o-glucoside] :: 78.8

Now consider a different molecule.
Query: Given the entry OC[C@H]1O[C@@H](Oc2cc3c(O)cc(O)cc3[o+]c2-c2cc(O)c(O)c(O)c2)[C@H](O)[C@@H](O)[C@@H]1O [Dp-3O-Glc, Delphinidin 3-o-glucoside] , report its measured Peak Area, Blank (4 hours).
Result: 46.3

* * *

Test: Example 1: stability of bilberry extract anthocyanosides, 4 hours at 37° C., pH 7.0, with/without DHLA or GSH (HPLC)
Assay type: physicochemical
Settings: 20 mg reduced L-glutathione, pH 7.0, 37° C., 4 hours
The compounds listed here are annotated with their Peak Area, GSH (4 hours).

Worked cases, answers included:
COc1cc(-c2[o+]c3cc(O)cc(O)c3cc2O[C@@H]2O[C@H](CO)[C@@H](O)[C@H](O)[C@H]2O)cc(O)c1O [Pt-3O-Glc, Petunidin 3-o-glucoside] :: 315.6
COc1cc(-c2[o+]c3cc(O)cc(O)c3cc2O[C@@H]2OC[C@H](O)[C@H](O)[C@H]2O)cc(O)c1O.[Cl-] [Pt-3O-Ara, Petunidin 3-o-arabinoside] :: 97.6
OC[C@H]1O[C@@H](Oc2cc3c(O)cc(O)cc3[o+]c2-c2cc(O)c(O)c(O)c2)[C@H](O)[C@@H](O)[C@@H]1O [Dp-3O-Glc, Delphinidin 3-o-glucoside] :: 350.8
OC[C@H]1O[C@@H](Oc2cc3c(O)cc(O)cc3[o+]c2-c2ccc(O)c(O)c2)[C@H](O)[C@@H](O)[C@@H]1O [Cn-3O-Glc, Cyanidin 3-o-glucoside] :: 797.5

Query: Bench note: what Peak Area, GSH (4 hours) did OC[C@H]1O[C@@H](Oc2cc3c(O)cc(O)cc3[o+]c2-c2ccc(O)c(O)c2)[C@H](O)[C@@H](O)[C@H]1O [Cn-3O-Gal, Cyanidin-3-O-galactoside] show?
Result: 360.2

* * *

Assay: Example 1: stability of bilberry extract anthocyanosides, 4 hours at 37° C., pH 7.0, with/without DHLA or GSH (HPLC)
Assay type: physicochemical
Settings: 20 mg reduced L-glutathione, pH 7.0, 37° C., 4 hours
# % left, GSH (4 hours) per record follows
Provide the reading as a plain figure in %.

# annotated cases, reported % left, GSH (4 hours) shown
Oc1cc(O)c2cc(O[C@@H]3OC[C@H](O)[C@H](O)[C@H]3O)c(-c3ccc(O)c(O)c3)[o+]c2c1 [Cn-3O-Ara, Cyanidin 3-o-arabinoside] :: 79.5
COc1cc(-c2[o+]c3cc(O)cc(O)c3cc2O[C@@H]2OC[C@H](O)[C@H](O)[C@H]2O)cc(OC)c1O [Mv-3O-Ara, Malvidin 3-o-arabinoside] :: 75.0
OC[C@H]1O[C@@H](Oc2cc3c(O)cc(O)cc3[o+]c2-c2ccc(O)c(O)c2)[C@H](O)[C@@H](O)[C@@H]1O [Cn-3O-Glc, Cyanidin 3-o-glucoside] :: 80.7

Query: Need % left, GSH (4 hours), item COc1cc(-c2[o+]c3cc(O)cc(O)c3cc2O[C@@H]2O[C@H](CO)[C@@H](O)[C@H](O)[C@H]2O)cc(O)c1O [Pt-3O-Glc, Petunidin 3-o-glucoside]
Result: 66.7

Query: Try this compound too: Oc1cc(O)c2cc(O[C@H]3OC[C@H](O)[C@H](O)[C@H]3O)c(-c3cc(O)c(O)c(O)c3)[o+]c2c1 [Dp-3O-Ara, Delphinidin 3-o-arabinoside]
Result: 50.2

* * *

Test: Example 1: stability of bilberry extract anthocyanosides, 4 hours at 37° C., pH 7.0, with/without DHLA or GSH (HPLC)
Type: physicochemical
Settings: unprotected, pH 7.0, 37° C., 4 hours
readout-type: Peak Area, Blank (4 hours)

OC[C@H]1O[C@@H](Oc2cc3c(O)cc(O)cc3[o+]c2-c2cc(O)c(O)c(O)c2)[C@H](O)[C@@H](O)[C@H]1O [Dp-3O-Gal, Delphinidin 3-o-galactoside] :: 50.9

Now examine the next entry.
Query: Peak Area, Blank (4 hours) lookup needed for COc1cc(-c2[o+]c3cc(O)cc(O)c3cc2OC2OC(CO)C(O)C(O)C2O)cc(O)c1O (stereo not shown) [Pt-3O-Gal, Petunidin 3-o-galactoside] , thanks.
Result: 40.7

* * *

Experiment: Example 5: degradation over time of black currant anthocyanosides at 37° C., pH 7.0, with/without GSH (HPLC)
Type: physicochemical
Settings: GSH-protected, pH 7.0, 37° C., 4 hours
readout-type: %-residual anthocyanosides (% left) (%)
Numbers only here, please. The scale is %.

OC[C@H]1O[C@@H](Oc2cc3c(O)cc(O)cc3[o+]c2-c2cc(O)c(O)c(O)c2)[C@H](O)[C@@H](O)[C@@H]1O [Dp-3O-Glc, Delphinidin 3-o-glucoside] :: 51
OC[C@H]1O[C@@H](Oc2cc3c(O)cc(O)cc3[o+]c2-c2ccc(O)c(O)c2)[C@H](O)[C@@H](O)[C@@H]1O [Cn-3O-Glc, Cyanidin 3-o-glucoside] :: 66
C[C@@H]1O[C@@H](OC[C@H]2O[C@@H](Oc3cc4c(O)cc(O)cc4[o+]c3-c3ccc(O)c(O)c3)[C@H](O)[C@@H](O)[C@@H]2O)[C@H](O)[C@H](O)[C@H]1O [Cn-3-O-Rut, Cyanidin-3-O-rutinoside] :: 66

For the next question, use this compound.
Query: Looking for the measured %-residual anthocyanosides (% left) of C[C@@H]1O[C@@H](OC[C@H]2O[C@@H](Oc3cc4c(O)cc(O)cc4[o+]c3-c3cc(O)c(O)c(O)c3)[C@H](O)[C@@H](O)[C@@H]2O)[C@H](O)[C@H](O)[C@H]1O [Dp-3-O-Rut, Delphinidin-3-O-rutinoside] , can you help?
Result: 53

* * *

Assay: Example 1: stability of bilberry extract anthocyanosides, 4 hours at 37° C., pH 7.0, with/without DHLA or GSH (HPLC)
Format: physicochemical
Settings: bilberry extract 60 mg/100 ml sodium phosphate buffer pH 7.0, fresh sample
readout-type: Peak Area, Fresh (0 hours)
Just the number, please.

Sample answers from the record:
COc1cc(-c2[o+]c3cc(O)cc(O)c3cc2O[C@@H]2O[C@H](CO)[C@@H](O)[C@H](O)[C@H]2O)ccc1O [Pe-3O-Glc, Peonidin 3-o-glucoside] :: 223.6
Oc1cc(O)c2cc(O[C@@H]3OC[C@H](O)[C@H](O)[C@H]3O)c(-c3ccc(O)c(O)c3)[o+]c2c1 [Cn-3O-Ara, Cyanidin 3-o-arabinoside] :: 369.6
COc1cc(-c2[o+]c3cc(O)cc(O)c3cc2O[C@@H]2OC[C@H](O)[C@H](O)[C@H]2O)cc(OC)c1O [Mv-3O-Ara, Malvidin 3-o-arabinoside] :: 108.3
COc1cc(-c2[o+]c3cc(O)cc(O)c3cc2O[C@@H]2O[C@H](CO)[C@H](O)[C@H](O)[C@H]2O)cc(OC)c1O [Mv-3O-Gal, Malvidin 3-o-galactoside] :: 179.1
COc1cc(-c2[o+]c3cc(O)cc(O)c3cc2O[C@@H]2O[C@H](CO)[C@@H](O)[C@H](O)[C@H]2O)cc(OC)c1O [Mv-3O-Glc, Malvidin 3-o-glucoside] :: 455.9

Query: Consider the compound shown here: Oc1cc(O)c2cc(O[C@H]3OC[C@H](O)[C@H](O)[C@H]3O)c(-c3cc(O)c(O)c(O)c3)[o+]c2c1 [Dp-3O-Ara, Delphinidin 3-o-arabinoside] What is its recorded Peak Area, Fresh (0 hours)?
Result: 564.9

Query: Try this compound next: COc1cc(-c2[o+]c3cc(O)cc(O)c3cc2O[C@@H]2O[C@H](CO)[C@@H](O)[C@H](O)[C@H]2O)cc(O)c1O [Pt-3O-Glc, Petunidin 3-o-glucoside]
Result: 473.4

Query: Same question, OC[C@H]1O[C@@H](Oc2cc3c(O)cc(O)cc3[o+]c2-c2ccc(O)c(O)c2)[C@H](O)[C@@H](O)[C@H]1O [Cn-3O-Gal, Cyanidin-3-O-galactoside] this time
Result: 465.8

Query: Consider next the compound OC[C@H]1O[C@@H](Oc2cc3c(O)cc(O)cc3[o+]c2-c2ccc(O)c(O)c2)[C@H](O)[C@@H](O)[C@@H]1O [Cn-3O-Glc, Cyanidin 3-o-glucoside] in the same way.
Result: 987.9

Query: Param item: OC[C@H]1O[C@@H](Oc2cc3c(O)cc(O)cc3[o+]c2-c2cc(O)c(O)c(O)c2)[C@H](O)[C@@H](O)[C@H]1O [Dp-3O-Gal, Delphinidin 3-o-galactoside]
Result: 654.4
